Test protocol: MTT cytotoxicity assay, HepG2
Assay type: cell-based, human
Cond: human, HepG2 cells (hepatocellular carcinoma), HepG2, 6.25 ug/ml, 48 h
Readout name: cytotoxicity at 48 h, 6.25 µg/ml (%)

[
  {
    "Molecule": "COc1c(O)cc2oc(-c3ccccc3)c(OC)c(=O)c2c1O [5,7-Dihydroxy-3,6-dimethoxyflavone]",
    "Readout name": "cytotoxicity at 48 h, 6.25 µg/ml",
    "Unit name": "%",
    "Test result": 24.9
  },
  {
    "Molecule": "COc1cccc2c1C(=O)c1c(O)c3c(c(O)c1C2=O)C[C@@](O)(C(=O)CO)C[C@@H]3O[C@H]1C[C@H](N)[C@H](O)[C@H](C)O1 [Doxorubicin, reference compound]",
    "Readout name": "cytotoxicity at 48 h, 6.25 µg/ml",
    "Unit name": "%",
    "Test result": 31.8
  }
]

These entries and their values trace back to paper PMC12446468.
